Field: IC50. Provide a value for each of the compounds that follow.
Target sequence: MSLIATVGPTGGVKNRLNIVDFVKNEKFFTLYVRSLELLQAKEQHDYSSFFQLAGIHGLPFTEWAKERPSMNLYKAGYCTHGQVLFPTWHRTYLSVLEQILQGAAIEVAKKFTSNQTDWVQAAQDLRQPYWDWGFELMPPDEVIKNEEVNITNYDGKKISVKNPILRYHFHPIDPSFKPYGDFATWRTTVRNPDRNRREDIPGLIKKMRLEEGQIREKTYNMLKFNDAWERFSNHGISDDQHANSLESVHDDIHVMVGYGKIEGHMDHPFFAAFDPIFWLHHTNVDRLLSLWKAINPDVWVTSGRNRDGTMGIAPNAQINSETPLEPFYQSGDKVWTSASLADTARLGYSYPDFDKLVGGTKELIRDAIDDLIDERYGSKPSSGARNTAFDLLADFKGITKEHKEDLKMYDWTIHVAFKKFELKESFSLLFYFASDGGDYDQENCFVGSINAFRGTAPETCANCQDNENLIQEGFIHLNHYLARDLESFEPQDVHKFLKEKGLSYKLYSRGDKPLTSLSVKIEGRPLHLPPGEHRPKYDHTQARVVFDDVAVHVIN
Give bare numbers, in µM.

Some solved cases for reference:
C[C@@H](CCc1ccc(O)cc1O)O[C@@H]1O[C@H](CO)[C@@H](O[C@@H]2O[C@H](CO)[C@@H](O)[C@H](O)[C@H]2O)[C@H](O)[C@H]1O ... 3.83
C[C@@H](CCc1ccc(O)cc1O)O[C@@H]1OC[C@@H](O)[C@H](O)[C@H]1O ... 4.56
CCCCCCc1ccc(O)cc1O ... 0.56

Please look at the following compound next.
INPUT: Param item = C[C@@H](CCc1ccc(O)cc1O)O[C@@H]1O[C@H](CO)[C@@H](O)[C@H](O)[C@H]1O ; retrieve measured IC50.
OUTPUT: 4.72

Source of measurements: ChEMBL document CHEMBL3098052
